- assay details: solvent given as SMILES
- protocol conditions: in ClC(Cl)Cl
Measured absorption maximum, listed per entry for reference.
metric name: absorption maximum (nm)

compound | result unit | numeric value
Cc1cccc(C)c1-c1cc2c(C)c3c4cc5nc6ccc7c8c(C)c9cc(-c%10c(C)cccc%10C)c(-c%10c(C)cccc%10C)cc9c(C)c8c7c6nc5cc4c3c(C)c2cc1-c1c(C)cccc1C | nm | 487
N#CC(C#N)=Cc1ccc(-c2ccc(N(c3ccccc3)c3ccccc3)cc2)s1 | nm | 506
CCn1c2ccccc2oc2c(C#N)c3oc4ccccc4oc3c(C#N)c21 | nm | 470
Cc1nc2c(ccc3c2sc(/C=C/c2ccc(N(C)C)cc2)[n+]3C)s1 | nm | 557
CCCCCCCCN1c2ccc(C#Cc3ccc(F)cc3)cc2Sc2cc(C=O)ccc21 | nm | 391.99
Cc1cccc(C2=Cc3c4ccccc4cc[n+]3[B-](F)(F)O2)c1 | nm | 401.5
COC1(OC)C2(Cl)c3nc4cc(-c5cccs5)ccc4nc3C1(Cl)C1C[C@H]3[C@@H](CC12)C1(Cl)c2nc4cc(-c5cccs5)ccc4nc2C3(Cl)C1(OC)OC (some centres not stated) | nm | 368
c1ccc(N(c2ccccc2)c2ccc(-c3ccc(-c4ccc(-c5cccs5)c5nsnc45)s3)cc2)cc1 | nm | 495
CCN(CC)c1ccc2cc(-c3cn4cc(OC)ccc4n3)c(=O)oc2c1 | nm | 434
CN(C)c1ccc(-c2ccc(-c3cc(-c4ccccc4)c(-c4ccccc4)c(-c4ccccc4)c3-c3ccccc3)s2)cc1 | nm | 362
CCCCC1(c2ccccc2)Nc2c(-c3ccc(N(C)c4ccccc4)cc3)ccc(-c3ccc(N(C)c4ccccc4)cc3)c2N=C1c1ccccc1 (configuration not stated) | nm | 380
COc1ccc(C#Cc2ccc(C#Cc3ccc(P(=O)(c4ccc(C#Cc5ccc(C#Cc6ccc(OC)cc6)cc5)cc4)c4ccc(C#Cc5ccc(C#Cc6ccc(OC)cc6)cc5)cc4)cc3)cc2)cc1 | nm | 338
c1ccc2c(-c3cc(-c4nccs4)nc(-c4nccs4)c3)cccc2c1 | nm | 330
C[Si](C)(C)c1sc([Si](C)(C)C)c2c1sc1ccsc12 | nm | 310
Cc1ccc(C2CC(=O)Oc3c2c2nc4ccc(C)cc4nc2c2ccccc32)cc1 (configuration not stated) | nm | 411
COc1ccc(OC)c(C=O)c1 | nm | 352
COc1cc(C=C(C#Cc2ccccc2)C#Cc2ccccc2)c(OC)cc1C=C(C#Cc1ccccc1)C#Cc1ccccc1 | nm | 455

Reference for the values: the Deep4Chem optical property database
